Reference source for all entries: ChEMBL document CHEMBL1144159

target-desc: Transcription factor Jun (Homo sapiens) (UniProt P05412)
Sequence (P05412 whole entry): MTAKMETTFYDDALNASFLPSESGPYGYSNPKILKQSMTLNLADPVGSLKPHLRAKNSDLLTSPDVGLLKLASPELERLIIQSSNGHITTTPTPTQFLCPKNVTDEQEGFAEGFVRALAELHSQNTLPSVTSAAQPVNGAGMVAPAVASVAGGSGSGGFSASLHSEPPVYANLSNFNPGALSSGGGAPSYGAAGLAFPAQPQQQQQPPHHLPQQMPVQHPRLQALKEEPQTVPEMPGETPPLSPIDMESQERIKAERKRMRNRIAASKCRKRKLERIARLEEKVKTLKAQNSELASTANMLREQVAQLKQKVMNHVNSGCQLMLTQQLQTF
test-summary: Effect on transcriptional activity of AP1 transfected in TPA-stimulated human Hep G2 cells after 4 hrs by luciferase reporter gene assay relative to control
Format: cell-based
test-parameters: HepG2
// reported fold change (FC) per item
result-type: fold change (FC)

- compound: "O=c1cc(-c2ccccc2)oc2cc(O)c(O)c(O)c12 [BAICALEIN]"
  result-type: "fold change (FC)"
  observed-measurement: 1.26
- compound: "O=c1cc(-c2ccccc2)oc2cc(O)c(OCc3ccccc3)c(O)c12"
  result-type: "fold change (FC)"
  observed-measurement: 0.85
- compound: "COc1c(O)cc2oc(-c3ccccc3)cc(=O)c2c1O [OROXYLIN A]"
  result-type: "fold change (FC)"
  observed-measurement: 1.27
- compound: "CCCOc1c(O)cc2oc(-c3ccccc3)cc(=O)c2c1O"
  result-type: "fold change (FC)"
  observed-measurement: 1.05
- compound: "CC(=O)Oc1c(O)cc2oc(-c3ccccc3)cc(=O)c2c1O"
  result-type: "fold change (FC)"
  observed-measurement: 1.18
- compound: "CCOc1c(O)cc2oc(-c3ccccc3)cc(=O)c2c1O"
  result-type: "fold change (FC)"
  observed-measurement: 1.21
